assayed target: UniProt:Q7ZJM1
Sequence (Q7ZJM1 as listed by the source): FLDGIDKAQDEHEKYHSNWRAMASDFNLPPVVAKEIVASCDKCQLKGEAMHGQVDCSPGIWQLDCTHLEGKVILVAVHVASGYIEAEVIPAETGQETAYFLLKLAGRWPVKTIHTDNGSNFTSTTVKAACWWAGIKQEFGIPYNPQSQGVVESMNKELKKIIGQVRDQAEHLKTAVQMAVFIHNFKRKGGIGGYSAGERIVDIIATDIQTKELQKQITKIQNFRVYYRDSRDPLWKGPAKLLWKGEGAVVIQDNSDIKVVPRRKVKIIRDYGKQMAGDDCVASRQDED
protocol description: Binding affinity to HIV-1 integrase measured after overnight incubation by chemiluminescence analysis relative to IN 174-188
Design: concentration or dose not given beside the values
Square brackets hold non-standard residues; d marks the D form. Peptide text beside a SMILES is read from it. NMeM = CN[C@@H](CCSC)C(=O)O
Activity values for the molecules below.
Enter your answer as a number in %; do not include the unit.

Please review the following examples before continuing.
molecule="CC[C@H](C)[C@H](NC(=O)[C@H](Cc1ccccc1)NC(=O)[C@@H](NC(=O)[C@H](C)NC(=O)[C@H](CCSC)NC(=O)[C@H](CCC(N)=O)NC(=O)[C@@H](NC(=O)[C@H](C)NC(=O)[C@@H](N)[C@@H](C)O)C(C)C)C(C)C)C(=O)N[C@@H](C)C(=O)N[C@@H](CC(N)=O)C(=O)N[C@@H](Cc1ccccc1)C(=O)N[C@@H](CCCCN)C(=O)N[C@@H](CCCNC(=N)N)C(=O)N[C@@H](CCCCN)C(=O)O (H-TAVQMAVFIANFKRK-OH)" property_label=Activity observed_measurement=122
molecule="CC[C@H](C)[C@H](NC(=O)[C@H](Cc1ccccc1)NC(=O)[C@@H](NC(=O)[C@H](C)NC(=O)[C@H](CCSC)NC(=O)[C@H](CCC(N)=O)NC(=O)[C@@H](NC(=O)[C@H](C)NC(=O)[C@@H](N)[C@@H](C)O)C(C)C)C(C)C)C(=O)N[C@@H](Cc1cnc[nH]1)C(=O)N[C@@H](CC(N)=O)C(=O)N[C@@H](Cc1ccccc1)C(=O)N[C@@H](CCCCN)C(=O)N[C@@H](C)C(=O)N[C@@H](CCCCN)C(=O)O (H-TAVQMAVFIHNFKAK-OH)" property_label=Activity observed_measurement=127
molecule="CC[C@H](C)[C@H](NC(=O)[C@H](Cc1ccccc1)NC(=O)[C@@H](NC(=O)[C@H](C)NC(=O)[C@H](CCSC)NC(=O)[C@H](CCC(N)=O)NC(=O)[C@H](C)NC(=O)[C@H](C)NC(=O)[C@@H](N)[C@@H](C)O)C(C)C)C(=O)N[C@@H](Cc1cnc[nH]1)C(=O)N[C@@H](CC(N)=O)C(=O)N[C@@H](Cc1ccccc1)C(=O)N[C@@H](CCCCN)C(=O)N[C@@H](CCCNC(=N)N)C(=O)N[C@@H](CCCCN)C(=O)O (H-TAAQMAVFIHNFKRK-OH)" property_label=Activity observed_measurement=115
molecule="CC[C@H](C)[C@H](NC(=O)[C@H](Cc1ccccc1)NC(=O)[C@@H](NC(=O)[C@H](C)NC(=O)[C@H](CCSC)NC(=O)[C@H](CCC(N)=O)NC(=O)[C@@H](NC(=O)[C@H](C)NC(=O)[C@@H](N)[C@@H](C)O)C(C)C)C(C)C)C(=O)N[C@@H](Cc1cnc[nH]1)C(=O)N[C@@H](CC(N)=O)C(=O)N[C@@H](Cc1ccccc1)C(=O)N[C@@H](C)C(=O)N[C@@H](CCCNC(=N)N)C(=O)N[C@@H](CCCCN)C(=O)O (H-TAVQMAVFIHNFARK-OH)" property_label=Activity observed_measurement=91

Request: Dear colleague, I am looking for the recorded Activity of the following molecule: CC[C@H](C)[C@H](NC(=O)[C@H](Cc1ccccc1)NC(=O)[C@@H](NC(=O)[C@H](C)NC(=O)[C@H](CCSC)NC(=O)[C@H](CCC(N)=O)NC(=O)[C@@H](N)C(C)C)C(C)C)C(=O)N[C@@H](Cc1cnc[nH]1)C(=O)N[C@@H](CC(N)=O)C(=O)N[C@@H](Cc1ccccc1)C(=O)N[C@@H](CCCCN)C(=O)N[C@@H](CCCNC(=N)N)C(=O)N[C@@H](CCCCN)C(=O)O (H-VQMAVFIHNFKRK-OH)
Response: 133

Request: Give the measured Activity of CC[C@H](C)[C@H](NC(=O)[C@H](Cc1ccccc1)NC(=O)[C@@H](NC(=O)[C@H](C)NC(=O)[C@H](CCSC)NC(=O)[C@H](CCC(N)=O)NC(=O)[C@@H](NC(=O)[C@H](C)NC(=O)[C@@H](N)[C@@H](C)O)C(C)C)C(C)C)C(=O)O (H-TAVQMAVFI-OH) .
Response: 0

Request: Could you share which Activity value was measured for CC[C@H](C)[C@H](NC(=O)[C@H](Cc1ccccc1)NC(=O)[C@@H](NC(=O)[C@H](C)NC(=O)[C@H](CCSC)NC(=O)[C@H](CCC(N)=O)NC(=O)[C@@H](NC(=O)[C@H](C)NC(=O)[C@H](C)N)C(C)C)C(C)C)C(=O)N[C@@H](Cc1cnc[nH]1)C(=O)N[C@@H](CC(N)=O)C(=O)N[C@@H](Cc1ccccc1)C(=O)N[C@@H](CCCCN)C(=O)N[C@@H](CCCNC(=N)N)C(=O)N[C@@H](CCCCN)C(=O)O (H-AAVQMAVFIHNFKRK-OH) ?
Response: 83

Request: Returns the measured Activity for the input molecule. Input: CC[C@H](C)[C@H](NC(=O)[C@@H](Cc1ccccc1)NC(=O)[C@@H](NC(=O)[C@H](C)NC(=O)[C@H](CCSC)NC(=O)[C@H](CCC(N)=O)NC(=O)[C@@H](NC(=O)[C@H](C)NC(=O)[C@@H](N)[C@@H](C)O)C(C)C)C(C)C)C(=O)N[C@@H](Cc1cnc[nH]1)C(=O)N[C@@H](CC(N)=O)C(=O)N[C@@H](Cc1ccccc1)C(=O)N[C@@H](CCCCN)C(=O)N[C@@H](CCCNC(=N)N)C(=O)N[C@@H](CCCCN)C(=O)O
Response: 120

Request: Please report the recorded Activity for CC[C@H](C)[C@H](NC(=O)[C@H](Cc1ccccc1)NC(=O)[C@@H](NC(=O)[C@H](C)NC(=O)[C@H](CCSC)N(C)C(=O)[C@H](CCC(N)=O)NC(=O)[C@@H](NC(=O)[C@H](C)NC(=O)[C@@H](N)[C@@H](C)O)C(C)C)C(C)C)C(=O)N[C@@H](Cc1cnc[nH]1)C(=O)N[C@@H](CC(N)=O)C(=O)N[C@@H](Cc1ccccc1)C(=O)N[C@@H](CCCCN)C(=O)N[C@@H](CCCNC(=N)N)C(=O)N[C@@H](CCCCN)C(=O)O (H-TAVQ[NMeM]AVFIHNFKRK-OH) .
Response: 103

Request: If you can, please state the reported Activity value of CC[C@H](C)[C@H](NC(=O)[C@H](Cc1ccccc1)NC(=O)[C@@H](NC(=O)[C@H](C)NC(=O)[C@H](CCSC)NC(=O)[C@H](C)NC(=O)[C@@H](NC(=O)[C@H](C)NC(=O)[C@@H](N)[C@@H](C)O)C(C)C)C(C)C)C(=O)N[C@@H](Cc1cnc[nH]1)C(=O)N[C@@H](CC(N)=O)C(=O)N[C@@H](Cc1ccccc1)C(=O)N[C@@H](CCCCN)C(=O)N[C@@H](CCCNC(=N)N)C(=O)N[C@@H](CCCCN)C(=O)O (H-TAVAMAVFIHNFKRK-OH) .
Response: 83
